Task for the reader: assign each of the following molecules its reported inhibition.
target_desc: Solute carrier family 2, facilitated glucose transporter member 1 (Homo sapiens) (UniProt P11166)
Sequence (P11166 whole entry): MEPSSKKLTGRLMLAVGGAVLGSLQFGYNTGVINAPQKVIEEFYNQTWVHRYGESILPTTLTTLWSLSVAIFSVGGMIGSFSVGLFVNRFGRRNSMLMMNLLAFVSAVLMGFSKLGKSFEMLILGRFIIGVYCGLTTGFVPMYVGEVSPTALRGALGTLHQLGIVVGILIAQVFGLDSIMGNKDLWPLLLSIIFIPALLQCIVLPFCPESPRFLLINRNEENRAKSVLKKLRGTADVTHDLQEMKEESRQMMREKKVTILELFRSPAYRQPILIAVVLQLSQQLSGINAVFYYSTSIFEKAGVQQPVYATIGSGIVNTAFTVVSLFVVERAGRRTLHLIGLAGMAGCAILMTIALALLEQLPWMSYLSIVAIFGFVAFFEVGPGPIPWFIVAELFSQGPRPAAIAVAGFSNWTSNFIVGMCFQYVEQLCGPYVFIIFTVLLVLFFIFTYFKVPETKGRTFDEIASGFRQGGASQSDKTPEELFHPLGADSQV
assay_remarks: ST_JUDE_LEISH: Cytotoxicity at 2uM final concentration against transgenic Leishmania Mexicana promastigotes LmGLUT1 that are glucose transport deficient and complemented with the human glucose transporter GLUT1. Activity is measured by DNA content using SYBR green in vitro
Assay type: functional
Your answer is read as %, so omit the unit and give the number.

Challenge: Return inhibition (reported value) for this molecule: O=C(Nc1ccc(Br)cc1)N(CCN1CCOCC1)CC(O)COc1ccc(Cl)c(F)c1 (stereo not given)
Response given: -0.94

Challenge: Output inhibition of Cc1c(C(C)(C)C)ccc2nc(N)nc(N)c12
Response given: 64

Challenge: Specify inhibition for Cc1ccc(-n2c(C)cc(C(=O)CN3C(=O)NC(Cc4ccccc4)C3=O)c2C)cc1 (stereo not given) and stop.
Response given: 0.81

Challenge: Quickly give me recorded inhibition for CS(=O)(=O)CCNCc1cccc(-c2cc3c(Nc4ccc(OCc5cccc(F)c5)c(Cl)c4)ncnc3s2)c1
Response given: -0.25

Challenge: Answer with the recorded inhibition for the molecule listed here: Nc1ncc(-c2ccc(S(=O)(=O)Nc3ccc(C(=O)N[C@@H](CCC(=O)O)C(=O)O)cc3)cc2)c(=O)[nH]1
Response given: 4.56

Challenge: Return value of inhibition for input c1cc(C2=NC3CCCCC3N2)ccc1OCCCCCOc1ccc(C2=NC3CCCCC3N2)cc1 (stereo not given) , no commentary.
Response given: 2.83

Challenge: Please indicate inhibition recorded for N#Cc1ccc2c(c1)CCN(CCC1CCC(NC(=O)c3ccc(-c4ccccc4)s3)CC1)CC2 (stereo not given)
Response given: 4.75

Challenge: Give the value of inhibition reported for the following: COc1cc(OC)cc(C(=O)N2CCOC(CCN3CCC(c4ccccc4)CC3)(c3ccc(Cl)c(Cl)c3)C2)c1 (stereo not given)
Response given: 0.22

Challenge: Indicate its recorded inhibition; the molecule in question is CN1CCN(c2ccc(Nc3ccnc4ccc(-c5ccccc5)cc34)cc2)CC1
Response given: 1.32

Challenge: # return recorded inhibition for entry CCCN(c1ccc(O)c(CN2CCCCC2)c1)c1ccc([N+](=O)[O-])cn1
Response given: 1.28

Challenge: Answer with the recorded inhibition for the molecule listed here: O=C(NCCN1CCCC1)c1cccc(Nc2nccc(Nc3ccc(Oc4ccccc4)cc3)n2)c1
Response given: 2.86

Challenge: Provide measured inhibition value, entry: COc1ccc2nccc([C@@H](O)CN3CCC(NCCOc4cccc(C(F)(F)F)c4Cl)CC3)c2c1
Response given: 11.3

Challenge: Tell us which inhibition value is on record for Oc1ccccc1CCNC1CCc2ccccc2C1 (stereo not given)
Response given: 4.4

Challenge: Note down inhibition recorded for Cc1cc(N[C@@H](Cc2ccccc2)C(=O)NCc2cccs2)nc(NCC2CCCCC2)n1
Response given: 3.33

Challenge: Identify measured inhibition associated with Clc1ccc2c(NCc3ccc4c(c3)OCO4)ccnc2c1
Response given: 6

Challenge: Specify inhibition for CCN(CC)CCCC(C)Nc1ccnc2cc(Cl)ccc12 (stereo not given) and stop.
Response given: 1.44

Challenge: Respond only with inhibition recorded for CCn1c(-c2ccccc2)cc2nnc3ccccc3c21
Response given: 6.68

Challenge: Read off the recorded inhibition for CO/C(=C\C=C\c1cc2cc(Cl)c(Cl)cc2[nH]1)C(=O)NCCCN1CCN(c2ccncc2)CC1
Response given: 4.85

Challenge: Tell me measured inhibition for COC(=O)[C@@H](NC(=O)[C@H](CC(C)C)Nc1ccc(C#N)c2ccccc12)c1ccc(O)cc1 please.
Response given: 1.02

Challenge: Annotate the molecule Cc1ccc(N2C(=O)C3C(C2=O)C2(c4ccccc4)C(=O)C3(c3ccccc3)C(c3ccccc3)=C2c2ccccc2)c(C)c1 (stereo not given) with its measured inhibition.
Response given: 6.28

Entry source: ChEMBL document CHEMBL3433997
